Biological target: T1, CaBdf1 BD2 (GST-tagged, wild-type) (Candida albicans (strain SC5314 / ATCC …, UniProt Q5A4W8))
T1 chain: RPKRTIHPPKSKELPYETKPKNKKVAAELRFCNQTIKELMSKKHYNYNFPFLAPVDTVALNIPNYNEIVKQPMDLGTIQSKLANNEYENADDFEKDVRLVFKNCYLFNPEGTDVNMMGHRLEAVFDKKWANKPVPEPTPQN
Assay: histone peptide array (Active Motif MODified), 1 uM GST-tagged bromodomain, anti-GST detection, normalized mean intensity
Square brackets hold non-standard residues; d marks the D form. Ends that are not written are not given here. Arg(Me2a) = CN(C)C(=N)NCCC[C@H](N)C(=O)O; pS = N[C@@H](COP(=O)(O)O)C(=O)O; Me2a = not defined here
Quick rule for you: binding score at 0.006 or higher means true (1), lower means false (0).

[
  {
    "BINDER": "ARTKQTARKSTGGKAPRKQ (A R T K Q T A R K pS pT G G K A P R K Q)",
    "QUALITATIVE LABEL": "false (0)"
  },
  {
    "BINDER": "ARTKQTARKSTGGKAPRKQ (A Rme2s T Kac Q T A Rme2a Kac S T G G K A P R K Q)",
    "QUALITATIVE LABEL": "true (1)"
  },
  {
    "BINDER": "PRKQLATKAAR(Me2a)K(Ac)[pS]APATGG (reading uncertain) [H3 16-35]",
    "QUALITATIVE LABEL": "false (0)"
  },
  {
    "BINDER": "A[Arg(Me2a)]TKQTARKSTGGKAPRKQ",
    "QUALITATIVE LABEL": "false (0)"
  },
  {
    "BINDER": "ARTKQTARKSTGGKAPRKQ (A R T K Q T A Rme2a Kme2 pS T G G K A P R K Q)",
    "QUALITATIVE LABEL": "false (0)"
  },
  {
    "BINDER": "PDPAK(Ac)SAPAPKK(Ac)GSK(Ac)KAVT [H2B 1-19]",
    "QUALITATIVE LABEL": "true (1)"
  },
  {
    "BINDER": "ARTKQTARKSTGGKAPRKQ (A Rme2s T Kme2 Q T A Rme2s K S T G G K A P R K Q)",
    "QUALITATIVE LABEL": "true (1)"
  }
]
